From: PubChem BioAssay

TEST METHOD NOTES: basal S. cerevisiae growth modulation, no modifier, primary screen, OD600, strain BY4716, 24 h, basal condition (AID 1173)
CONDITION DESCRIPTION: OD600, 24 h, higher = more signal, called active from +8 up or from −8 down
Lab note: compare z-score against -0.9. Equal or greater, write fulfilled. Smaller, write not fulfilled.

# COMPOUND, CATEGORY LABEL
measured = [
    ("C=CCOC(=O)[C@H]1[C@@H]2C(=O)O[C@@H](c3ccccc3)[C@@H](c3ccccc3)N2[C@@H](c2ccc(OCCOC(=O)[C@H]3C[C@H]4C(=O)N5CCC[C@H]5C(=O)N4[C@H]3c3cccc(OCCO)c3)cc2)[C@]12C(=O)Nc1ccc(I)cc12", "fulfilled"),
    ("CCCC[C@H]1OB(O)C[C@H]2C1=C(C)C[C@H]1C(=O)N(C)C(=O)[C@H]12", "not fulfilled"),
    ("COC(=O)[C@H](C)NC(=O)CCC1CC(OC(=O)NCc2cccc3ccccc23)CC2(CCCC(COC(=O)NCC3CCCCC3)O2)O1 (stereo partly specified)", "fulfilled"),
    ("C#CCCCON=C1C[C@@H](O)[C@@H](O)[C@@H]2[C@@H]3C(=O)N(CCC(=O)OCC)C(=O)[C@@H]3CC[C@@H]12", "fulfilled"),
]

###

TEST METHOD NOTES: binders of probe aFSTL3 on microarray, primary screen, stem cell growth factor project, biochemical, small-molecule microarray, fluorescence 635/667 (AID 1064);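 further: measures binding of the biotinylated anti-FSTL3 antibody to printed compounds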
CONDITION DESCRIPTION: higher = more signal
MEASURE: composite z-score

# INPUT SMILES, MEASURE, OBS VALUE
measured = [
    ("CO[C@@H]1COC(=O)CC=C[C@@H](C)[C@@H]2C=C[C@H](O)[C@@H](COC(=O)CCC[C@H]1C)O2", "composite z-score", -0.29),
    ("CCOC(=O)NN=C1C[C@@H](O)[C@@H](O)[C@@H]2[C@@H]3C(=O)N(C(C)(C)C)C(=O)[C@@H]3CC[C@@H]12", "composite z-score", -0.295),
    ("CC(CCC(=O)OC[C@H]1O[C@H](C#Cc2ccccc2)C=C[C@@H]1Oc1ccc(C)cc1)=NO[C@@H](C)c1cn([C@H](CO)Cc2ccccc2)nn1", "composite z-score", -0.583),
    ("CCN1C(=O)[C@H]2[C@H]3[C@H](O)[C@H](O)CC(=NO[C@@H]4O[C@H](CO)[C@@H](O)[C@H](O)[C@H]4O)[C@@H]3CC[C@H]2C1=O", "composite z-score", -0.0837),
    ("CO[C@@H]1COC(=O)CC=C[C@@H](C)[C@@H]2C=C[C@@H](O)[C@@H](COC(=O)CC=C[C@H]1C)O2", "composite z-score", -0.42),
    ("NCCCCCNC(=O)[C@@H]1C[C@@H]2C(=O)N3CCC[C@H]3C(=O)N2[C@@H]1c1cccc(OCCO)c1", "composite z-score", 2.37),
    ("CCCC=C(CCC)[C@@H](NC(=O)c1ccc(-c2ccccc2)cc1)c1ccc(C(=O)OC)cc1", "composite z-score", 0.0763),
]

###

EXPERIMENTAL TARGET: Follistatin (Homo sapiens)
TEST METHOD NOTES: follistatin binders on small-molecule microarrays, primary screen, biochemical, small-molecule microarray, 635/667 nm fluorescence (AID 1132)
CONDITION DESCRIPTION: FST binding, 635 nm fluorescence, higher = more signal
Below: a set of entries, each annotated with reported composite z-score.

# COMPOUND, composite z-score
rows = [
    ("COCCOC(=O)N1C(=O)[C@@]2(c3ccccc31)[C@H](C(N)=O)[C@H]1C(=O)O[C@H](c3ccccc3)[C@H](c3ccccc3)N1[C@@H]2c1ccccc1OCCO", 1.3),
    ("C=CC[C@@H]1C=C[C@H](ON=C(C)CCN2CCc3nc(CC)c(CC)cc3C2)[C@@H](CO)O1", 1.3),
    ("COCCCNC(=O)[C@]1(CCC(=O)OC(C)(C)C)N=C(c2ccc(OCCCO)cc2)O[C@@H]1c1ccccc1N=[N+]=[N-]", 1.28),
    ("CO[C@@H]1COC(=O)CC=C[C@@H](C)[C@@H]2C=C[C@H](O)[C@@H](COC(=O)CCC[C@H]1C)O2", 1.06),
    ("N#Cc1ccc(NN2C(C(O)c3cc(C(F)(F)F)cc(C(F)(F)F)c3)C=CC3C(=O)N(c4ccccc4)C(=O)C32)cc1 (centres undefined)", 1.11),
    ("CCN1C(=O)[C@H]2[C@H]3[C@H](O)[C@H](O)CC(=NOC(C)CN4CCCCc5nc(C)c(C)cc54)[C@@H]3CC[C@H]2C1=O (some centres undefined)", 0.861),
    ("C[C@@H](c1ccccc1)N1C(=O)[C@H]2[C@H]3[C@H](O)C=CC(=O)[C@@H]3CC[C@H]2C1=O", 0.503),
    ("COCCOC(=O)N1C(=O)[C@@]2(c3cc(C#CC4(O)CCCCCC4)ccc31)[C@H](c1ccc(OCCO)cc1)N1[C@H](c3ccccc3)[C@H](c3ccccc3)OC(=O)[C@H]1[C@@H]2C(=O)NC[C@H](O)c1ccccc1", 1.15),
    ("CC(CCN1CCCCc2nc(C)c(C)cc21)=NOC(C)CN1CCCc2nc(C)c(C)cc21 (centres undefined)", 1.36),
    ("COCC(=C=CC[C@@H](O)c1ccccc1OCCO)CCO", 0.768),
    ("CCc1cccc(NC(=O)O[C@H]2[C@H](OC(=O)Nc3ccc4c(c3)OCO4)[C@@H](OC(=O)Nc3ccc4c(c3)OCO4)[C@@H](OC)O[C@@H]2CO)c1", 1.03),
    ("COC(=O)[C@@]1(Cc2ccc(OC)cc2)[C@H]2c3cc(C(=O)N4CCCC4)n(Cc4cc(F)c(F)c(F)c4)c3C[C@H]2CN1C(=O)c1ccccc1", 1.19),
    ("O=C1[C@H]2[C@H]3[C@H](O)[C@H](O)CC(=NOCc4ccccc4)[C@@H]3CC[C@H]2C(=O)N1C1CCCCC1", 0.207),
    ("COC(=O)C1=CCC(c2cccc(Cl)c2)O1 (centres undefined)", -0.399),
    ("COC(=O)C1=C(C)[C@@H](O)[C@@H](C)[C@H](c2c(OC)c(OC)c(C)c(OC)c2OC)O1", 0.194),
    ("COC(=O)CC=C[C@H](C)[C@H](CO)NS(=O)(=O)c1ccc(C)cc1", 0.525),
    ("CO[C@H]1COC(=O)[C@H](C)NC(=O)[C@@H](C)COC(=O)CC=C[C@@H]1C", 0.598),
    ("COC(=O)[C@@H]1N=C(c2ccc(OCCCO)cc2)O[C@@H]1c1ccccc1N=[N+]=[N-]", 0.499),
    ("CC(CCC(=O)OC[C@H]1O[C@H](C#Cc2ccccc2)C=C[C@@H]1Oc1ccc(C)cc1)=NOC[C@@H](O)[C@H]1O[C@@H]2OC(C)(C)O[C@@H]2[C@H]1O", -0.382),
    ("CCOC(=O)C1=CCC(c2cc3ccccc3[nH]2)NC1 (centres undefined)", 1.12),
    ("CC(C)[C@@H](OCc1ccccc1)[C@H](C)C=NO[C@H](C)c1cn([C@H](CO)Cc2ccccc2)nn1", 0.171),
    ("C[C@H]1Cc2c(-c3ccccc3)nc3c(c2CO1)CN(CCOc1ccccc1)CC3", 1.09),
    ("CCOC(=O)NN=C1C[C@@H](O)[C@@H](O)[C@@H]2[C@@H]3C(=O)N(C[C@@H]4CCCO4)C(=O)[C@@H]3CC[C@@H]12", 0.306),
    ("CN1C(=O)C2C=CC(C(O)C(c3ccccc3)c3ccccc3)N(NC(=O)OC(C)(C)C)C2C1=O (centres undefined)", 1.03),
    ("CO[C@H]1O[C@H](CO)[C@@H](OC(=O)Nc2ccc(C#N)cc2)[C@H](OC(=O)c2cc3ccccc3[nH]2)[C@H]1OC(=O)c1cc2ccccc2[nH]1", 0.491),
    ("O=C1[C@H]2[C@H]3[C@H](O)[C@H](O)CC(=NO[C@@H]4O[C@H](CO)[C@@H](O)[C@H](O)[C@H]4O)[C@@H]3CC[C@H]2C(=O)N1c1ccc(F)cc1F", 0.438),
    ("C[C@@H](c1ccccc1)N1C(=O)[C@H]2[C@H]3[C@H](O)[C@H](O)CC(=NOC[C@@H](O)COCc4ccco4)[C@@H]3CC[C@H]2C1=O", -0.761),
    ("CC(C)OC(=O)C=C1C[C@@H](c2ccc(C#N)cc2)O[C@@H](c2ccc(C#N)cc2)O1", 1.31),
    ("COCCOC(=O)N1C(=O)[C@@]2(c3cc(C#CCNC(N)=O)ccc31)[C@H](c1ccccc1OCCO)N1[C@H](c3ccccc3)[C@H](c3ccccc3)OC(=O)[C@H]1[C@@H]2C(=O)N1CCN(c2ncccn2)CC1", 0.705),
]
